tgt: RSV F on RSV-A2 virus (Respiratory syncytial virus, RSV-A2, UniProt P03420 26-574)
experimental.details: cell-based or functional assay
endpoint.name: Neutralization IC50 (RSV subtype A)

Look up Neutralization IC50 (RSV subtype A) for this binder: ADI-41677 (antibody, V domains shown) VH: QVTLKESGPALVKPTQTLTLTCTFSGFSLSTSRMCVSWIRQPPGKALEWLARIDWDGDIYYSTSLRTRLTISKDTSKNQVVLTMTNMDPVDTATYYCARTSIYATGGYYLYYSDYWGQGTLVTVSS VL: EIVMTQSPSSLSASVGDRVTITCRASQSIASYVNWFQQKPGKAPKLLIYAASNVHSGVPSRFSGSGSGTGFTLTISSLQPEDSAIYYCQQSYTTPWTFGQGTKLEIK
> 25 µg/mL

I'd like to know its Neutralization IC50 (RSV subtype A). The binder in question is ADI-41608 (antibody, V domains shown) VH: QVQLVQSGDEVKKPGESLKISCKGSEHTFTNYWIAWVRQMPGKGLECMGVIWPDDSDTKYSPSFQGQVTISADKSINTAYLHLSSLRASDTAMYYCATSKFRTGFDFWGQGTLVTVSS VL: NFMLTQPHSVSESPGKTVIISCTRSSGNIASNYVQWYQQRPGSSPTTVVYEDNQRPSGVPDRFSGSIDSSSNSASLTISGLKTEDEADYYCQSYDSSNPWVFGGGTKLTVL
> 25 µg/mL

Using the record for ADI-41664 (antibody, V domains shown, also called Ab 890; Antibody Number 890) VH: EVQLVQSGDEVKKPGASVKVSCKASGYPFSTYGISWVRQAPGQGLEWMGWIGVYTGGTNYAQKFQGRVTLTTDTSTSTAYMELRSLRSDDTAVYYCARGTGSYMTATYFDYWGQGTLVTVSS VL: SYELTQPPSVSVAPGQTARITCGGNNIGSKAVHWYQQKPGQAPVLVVYDDYDRPSGIPERFSGSNSGNTATLTISRVEAGDEADYYCQVWDSSSDYVFGTGTKLTVL , report its Neutralization IC50 (RSV subtype A).
> 25 µg/mL
